Measured values drawn from the supplement of paper PMC10567573 for this set.

B1: DYRK1B (parent)
chain: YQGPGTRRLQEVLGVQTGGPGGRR

Variants of: B1
Assay: protein stability index of a GFP-peptide fusion (GPS, HEK-293T) (PSI 1-6); higher = more stable;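 note: lentivirally expressed fusions sorted by FACS into six bins by GFP to DsRed ratio, PSI derived from sequencing read proportions per bin multiplied by bin number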
Details: c terminus: a fixed tail appended
Quantity Measured: protein stability index
Please give only the number in your answer, with no unit.

Ask | Dear colleague, please send me the reported protein stability index for "E11P" when you can.
Reply | 2.73

Ask | Dear colleague, please send me the reported protein stability index for "R8G" when you can.
Reply | 3.14

Ask | Dear colleague, please send me the reported protein stability index for "G3S" when you can.
Reply | 3.44

Ask | Dear colleague, please send me the reported protein stability index for "R23F" when you can.
Reply | 2.37

Ask | Dear colleague, please send me the reported protein stability index for "L13F" when you can.
Reply | 2.9

Ask | Dear colleague, please send me the reported protein stability index for "Q16D" when you can.
Reply | 4.06

Ask | Dear colleague, please send me the reported protein stability index for "V15L" when you can.
Reply | 2.68

Ask | Dear colleague, please send me the reported protein stability index for "R23I" when you can.
Reply | 2.75

Ask | Dear colleague, please send me the reported protein stability index for "Y1M" when you can.
Reply | 4.18

Ask | Dear colleague, please send me the reported protein stability index for "L13C" when you can.
Reply | 3.88

Ask | Dear colleague, please send me the reported protein stability index for "G22Y" when you can.
Reply | 2.63

Ask | Dear colleague, please send me the reported protein stability index for "G3C" when you can.
Reply | 3.58

Ask | Dear colleague, please send me the reported protein stability index for "R23M" when you can.
Reply | 3.27

Ask | Dear colleague, please send me the reported protein stability index for "R23E" when you can.
Reply | 3.32
